target.desc: Cytochrome P450 2D6 (Homo sapiens) (UniProt P10635)
Sequence (P10635 whole entry, looked up): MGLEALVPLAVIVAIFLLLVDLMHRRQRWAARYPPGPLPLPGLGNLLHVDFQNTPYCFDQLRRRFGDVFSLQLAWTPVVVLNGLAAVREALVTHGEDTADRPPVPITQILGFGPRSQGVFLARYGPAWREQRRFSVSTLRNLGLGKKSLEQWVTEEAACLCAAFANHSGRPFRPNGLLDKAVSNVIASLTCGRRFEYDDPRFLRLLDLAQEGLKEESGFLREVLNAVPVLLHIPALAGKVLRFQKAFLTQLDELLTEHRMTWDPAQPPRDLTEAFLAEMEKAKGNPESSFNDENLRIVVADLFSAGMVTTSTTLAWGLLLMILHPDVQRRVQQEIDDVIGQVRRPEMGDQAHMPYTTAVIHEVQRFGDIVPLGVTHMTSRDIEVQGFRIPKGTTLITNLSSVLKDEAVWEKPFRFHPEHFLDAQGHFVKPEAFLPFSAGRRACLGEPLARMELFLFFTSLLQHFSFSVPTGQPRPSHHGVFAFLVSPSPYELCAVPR
method.description: Cytochrome panel assay with activity outcomes
condition: recombinant CYP, pro-luciferin dealkylation, luminescence, p450-cyp2d6; series mostly up to 57.1 µM
Screen size: about 16,000 compounds; about 2,600 (16%) were called active. Inconclusive results (about 20%) are left out. These entries were drawn from the full list.
readout.kind: AC50

query.smiles | observed.measurement
CN(C)C(=O)c1ccc(-c2ccc3ncnc(N4CCC(C(=O)O)CC4)c3c2)cc1 | inactive
O=S(=O)(c1ccccc1)N1CCC2(CCCN(C(c3ccccc3)c3ccccc3)C2)CC1 | 501 nM (active)
O=C(COc1ccc2ccccc2c1)N1CCN(C(=O)c2cccnc2)CC1 | inactive
CCOc1ccc(CCNC(=O)CCCN2C(=O)c3ccccc3C2=O)cc1OCC | inactive
O=C(CN1CCN(Cc2ccccc2)CC1)N1CCCc2c1c(=O)oc1ccc(O)cc21 | 12600 nM (active)
CC(C)(Oc1ccc(Cl)cc1)C(=O)Nc1cccnc1 | inactive
Cc1cc2nnc(SCCCCN3C(=O)c4ccccc4C3=O)n2c2ccccc12 | inactive
Clc1ccc2c(N3CCC(CCC4CCN(c5ncnc6cc(Cl)ccc56)CC4)CC3)ncnc2c1 | 794 nM (active)
Cc1noc(NS(=O)(=O)c2ccc(NC(=O)CC34CC5CC(CC(Br)(C5)C3)C4)cc2)c1C | inactive
Cc1ccc(C(=O)N(CN2CCCC2=O)c2ccccc2)cc1C | inactive
COc1ccc(-n2c(=O)c(C)nc3cnc(OC)nc32)cc1 | inactive
O=c1c(-c2ccccc2)nc2cnc(N3CCOCC3)nc2n1-c1ccccc1 | inactive
Nc1ccc(O)c(C(=O)O)c1 | inactive
Nc1nnnn1/N=C\c1ccc(Cl)c([N+](=O)[O-])c1 | inactive
Cc1cccc(C(=O)O/N=C(\N)c2cccc([N+](=O)[O-])c2)c1 | inactive
COc1ccc(CCNC(=O)CCCCCN2C(=O)c3ccccc3C2=O)cc1 | 5010 nM (active)
Oc1ccc2oc3c(c2c1)CCCC3 | inactive
COc1cc(/C=N/NC(=O)c2ccncc2)ccc1OC(=O)c1ccc([N+](=O)[O-])cc1 | inactive
CN(C)c1ncc2nc(-c3ccc(Cl)cc3)c(=O)n(Cc3cccs3)c2n1 | inactive
Clc1ccccc1-c1ccc2ncnc(N3CCNCC3)c2c1 | inactive
O=S(=O)(c1ccccc1)N1CCC2(CC1)CN(C(c1ccccc1)c1ccccc1)C2 | 2510 nM (active)
COC(=O)CN1C(=O)S/C(=C/c2ccc(N3CCCCC3)o2)C1=O | inactive

Data credit: PubChem BioAssay AID1851
